system: isolated corpus cavernosum of rabbit; assay: Relaxation on norepinephrine-induced contraction in isolated corpus cavernosum of rabbit; settings: Oryctolagus cuniculus, pre-treatment with L-NAME (1 mmol/L)
MEASURED_METRIC: pIC50
Remember, pIC50 is on a log scale: it is -log10 of the molar concentration.

// pIC50 lookup, compound = Cl.O=c1[nH]nc(OCCCc2ccc(Cl)cc2)c(NCc2cccnc2)c1Br [Compound A, hydrochloride] , result: 6.11
